Tested on: MCF7 breast
Test: NCI-60 one-dose screen, 48 h
Conditions: 10 µM unless noted
This is part of a sample that, as a whole, favours compounds with a hit. Of some 83,000 tested, about 20% had one in any assay. The source made the active and inactive calls. How the source made its calls: active means growth percent below 10; inactive means the rest.
Return exactly one item of active, inactive

Look up the recorded call for "CCCCCCCC[Si](OCC)(OCC)OCC" in this test. inactive

Look up the recorded call for "O=C(Nc1ccccc1)P(=O)(O)c1ccccc1" in this test. inactive

Look up the recorded call for "CNc1nc(NC2CCCC2)nc(Sc2ccc(OC)cc2)n1" in this test. inactive

Look up the recorded call for "COc1cccc(-c2nc(-c3ccc(N)cc3)co2)c1" in this test. inactive

Look up the recorded call for "Cc1ccc(NC(=O)c2sc3nc4c(cc3c2N)C(=O)CCC4)cc1" in this test. inactive

Look up the recorded call for "COc1ccc(-c2cnc(SCC(=O)Nc3ccc(-c4nc5ccccc5s4)cc3)n2-c2ccc(OC)cc2)cc1" in this test. inactive

Look up the recorded call for "COC(=O)[C@H](Cc1cn(C)cn1)NC(=O)[C@H](C)NC(=O)Nc1cc(C(F)(F)F)cc(C(F)(F)F)c1" in this test. active

Look up the recorded call for "O=C(CSc1ncc(-c2ccccc2)n1-c1ccccc1)Nc1ccc(-c2nc3ccccc3s2)cc1" in this test. inactive

Look up the recorded call for "O=C(c1ccc(Cl)cc1)c1ccc(Cl)cc1" in this test. inactive

Look up the recorded call for "Cc1cc(-c2ccccc2)cc(C)n1" in this test. inactive

Look up the recorded call for "CCOC(=O)c1cc2oc(/C=C/c3cc(=O)c4cc(Cl)ccc4o3)cc2[nH]1" in this test. inactive

Look up the recorded call for "COc1ccc(-c2cc(-c3nnc(SCC(=O)Nc4ccc(C(C)=O)cc4)n3-c3ccccc3)c3ccccc3n2)cc1OC" in this test. inactive

Look up the recorded call for "CC(=O)Nc1cc(C(c2ccccc2)c2ccccc2)cc(C(c2ccccc2)c2ccccc2)c1C" in this test. inactive

Look up the recorded call for "Cc1cc(C)nc(NS(=O)(=O)c2ccc(Nc3nc4nc(SCc5ccccc5)nc(-c5ccc(O)cc5)c4c(=O)[nH]3)cc2)n1" in this test. inactive

Look up the recorded call for "O=C(O)c1ccc(CNS(=O)(=O)c2ccc3ccccc3c2)cc1" in this test. inactive

Look up the recorded call for CO[C@H]1/C=C/O[C@@]2(C)Oc3c(C)c(O)c4c(O)c(c(/C=N/N5C(C)CN(Cc6ccc(C#N)cc6)CC5C)c(O)c4c3C2=O)NC(=O)/C(C)=C\C=C\[C@H](C)[C@H](O)[C@@H](C)[C@@H](O)[C@@H](C)[C@H](OC(C)=O)[C@@H]1C (stereo partly specified) in this test. inactive

Look up the recorded call for COc1cc(C2CC(C3C(=O)N(C)C(=O)N(C)C3=O)=NN2C=O)cc(OC)c1OC (stereo unspecified) in this test. inactive

Look up the recorded call for CCOC1Oc2ccccc2C(=O)/C1=N/c1nccs1 (stereo unspecified) in this test. inactive

Look up the recorded call for "C(=C1c2ccccc2-c2ccccc21)c1ccccn1" in this test. inactive

Look up the recorded call for "C[C@@H]1[C@H]2[C@H](C=C3[C@@H]4CC[C@H]5Cc6nc7c(nc6C[C@]5(C)[C@H]4C[C@@H](O)[C@@]32C)C[C@@H]2CC[C@H]3C4=C[C@@H]5O[C@@]6(CC[C@](C)(CO)O6)[C@@H](C)[C@@]5(O)[C@@]4(C)[C@H](O)C[C@@H]3[C@@]2(C)C7)O[C@]12CCC(C)(C)O2" in this test. inactive

Look up the recorded call for "COc1ccc(-c2ccc(O)c(C(=O)/C=C/c3cc(OC)c(OC)c(OC)c3)c2)cc1" in this test. inactive

Look up the recorded call for "CCOc1nc(-c2ccco2)n2nc(-c3ccco3)cc2n1" in this test. inactive

Look up the recorded call for "COc1cc(/C=C2\CN(S(=O)(=O)c3ccc(C)cc3)C/C(=C\c3cc(CN4CCOCC4)c(O)c(OC)c3)C2=O)cc(CN2CCOCC2)c1O" in this test. inactive

Look up the recorded call for O=CN1N=C(c2ccc(Cl)cc2)CC1c1cccc(Nc2ccnc3cc(Cl)ccc23)c1 (stereo unspecified) in this test. inactive

Look up the recorded call for "Cc1nn(-c2ccccc2)cc1/C=C1\SC(N2CCCCC2)=NC1=O" in this test. inactive

Look up the recorded call for CC(=O)N1N=C(c2ccc(Nc3nc(NCCO)nc(NCCO)n3)cc2)CC1c1ccc(Cl)cc1 (stereo unspecified) in this test. inactive
